Quick list: pIC50 per entry.
Biological target: E1-E2-DNA complex (Human papillomavirus 11, UniProt P04015)
Sequence (P04015 whole entry, one chain of several): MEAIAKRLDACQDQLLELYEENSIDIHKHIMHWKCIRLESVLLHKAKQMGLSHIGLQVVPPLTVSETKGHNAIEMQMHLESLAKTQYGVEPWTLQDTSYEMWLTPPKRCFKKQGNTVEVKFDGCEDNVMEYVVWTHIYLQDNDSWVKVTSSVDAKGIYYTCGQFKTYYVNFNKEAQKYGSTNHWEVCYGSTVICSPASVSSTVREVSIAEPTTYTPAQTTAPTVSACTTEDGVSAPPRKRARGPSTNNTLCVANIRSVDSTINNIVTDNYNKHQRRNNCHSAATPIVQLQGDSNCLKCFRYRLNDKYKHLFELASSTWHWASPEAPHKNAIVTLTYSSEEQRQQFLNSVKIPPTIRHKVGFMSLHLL
Assay: E2-dependent E1 DNA binding assay (E1-E2 DNA assay)
Conditions: E1-E2 DNA assay of Example 11, HPV-11
Procedure: This particular assay determines the ability of a test compound to inhibit the activity (IC50) of HPV-11 DNA replication. More specifically, in the assay described herein, the inhibitory activity of the test compound is evaluated based on its ability to interfere with the E1-E2-DNA origin of replication interaction, thereby inhibiting initiation of viral DNA replication. This assay was modeled on a similar assay for SV40 T Antigen described by McKay (J. Mol. Biol., 1981,145:471). […]
pIC50: −log10 of the molar value.

As a guide, the following entries are already answered.
compound	assayTarget	valueMeasured
O=C(Nc1ccc(Cl)cc1)C1C(c2ccc(Cl)cc2)OC2(C(=O)c3ccccc3C2=O)C1C(=O)O (stereo not shown)	E1-E2-DNA complex (Human papillomavirus 11, UniProt P04015)	4.30 to 5.30
O=C(c1ccccc1)c1cccc(NC(=O)C2C(c3ccc(Cl)c(Cl)c3)OC3(C(=O)c4ccccc4C3=O)C2C(=O)O)c1 (stereo not shown)	E1-E2-DNA complex (Human papillomavirus 11, UniProt P04015)	5.30 to 6.30
O=C(Nc1ccc(Br)c(Cl)c1)C1C(c2ccc(Br)c(Br)c2)OC2(C(=O)c3ccccc3C2=O)C1C(=O)O (racemic)	E1-E2-DNA complex (Human papillomavirus 11, UniProt P04015)	5.30 to 6.30
COC(=O)C1C(C(=O)Nc2ccc3c(c2)OCO3)C(c2ccc(Cl)c(Cl)c2)OC12C(=O)c1ccccc1C21CO1 (racemic)	E1-E2-DNA complex (Human papillomavirus 11, UniProt P04015)	4.30 to 5.30
O=C(Nc1ccc2c(c1)OCO2)C1C(c2cc3ccccc3o2)OC2(C(=O)c3ccccc3C2=O)C1C(=O)O (stereo not shown)	E1-E2-DNA complex (Human papillomavirus 11, UniProt P04015)	4.30 to 5.30
O=C(Nc1ccccc1)C1C(c2ccc(F)c(F)c2)OC2(C(=O)c3ccccc3C2=O)C1C(=O)O (stereo not shown)	E1-E2-DNA complex (Human papillomavirus 11, UniProt P04015)	4.30 to 5.30
Cc1ccc2c(c1)C1(O)OC(=O)C3C(C(=O)NCCc4ccccc4Cl)C(c4ccc(Br)c(Br)c4)OC31C2=O (single isomer, unassigned) [Compound B1005]	E1-E2-DNA complex (Human papillomavirus 11, UniProt P04015)	4.30 to 5.30
O=C(Nc1ccccc1)C1C(c2ccc(Cl)cc2)OC2(C(=O)c3ccccc3C2=O)C1C(=O)O (stereo not shown)	E1-E2-DNA complex (Human papillomavirus 11, UniProt P04015)	4.30 to 5.30
O=C1C2C(c3ccc(Cl)c(Cl)c3)OC3(C(=O)c4ccccc4C3O)C2C(=O)N1c1ccc2c(c1)OCO2 (racemic)	E1-E2-DNA complex (Human papillomavirus 11, UniProt P04015)	4.30 to 5.30
Cc1ccc(C2OC3(C(=O)c4ccccc4C3=O)C(C(=O)O)C2C(=O)Nc2cnc3ccccc3c2)cc1C (stereo not shown)	E1-E2-DNA complex (Human papillomavirus 11, UniProt P04015)	4.30 to 5.30

Exercise: Requested read-out: pIC50. Entry: O=C(Nc1ccc(F)c(F)c1)C1C(c2ccc(F)c(Cl)c2)OC2(C(=O)c3ccccc3C2=O)C1C(=O)O (stereo not shown)
Key: 4.30 to 5.30

Exercise: Requested read-out: pIC50. Entry: O=C(NN1CCOCC1)C1C(c2ccc(Br)c(Br)c2)OC2(C(=O)c3ccccc3C2=O)C1C(=O)O (racemic)
Key: 5.30 to 6.30

Exercise: Requested read-out: pIC50. Entry: O=C(NC1CC1c1ccccc1)C1C(c2ccc(Br)c(Br)c2)OC2(C(=O)c3ccccc3C2=O)C1C(=O)O (single isomer, unassigned) [Compound 1088]
Key: 5.30 to 6.30

Values were extracted from patent EP1345943B1.
